Entry source: PubChem BioAssay AID504339

# target-system: Lysine-specific demethylase 4A (Homo sapiens)
# assay-remarks: qHTS Assay for Inhibitors of JMJD2A-Tudor Domain; note: nearly all actives have a fitted effect of over 50% in size
# measurement-parameters: AlphaScreen JMJD2A-Tudor / H3K4me3 peptide binding; series mostly up to 114 µM
Out of some 390,000 compounds screened, about 17,000 (4.4%) were called active. Not shown: some 8% with an inconclusive outcome. Calls come from the whole dose curve; as a rule, active = well fitted inhibition curve with a large enough effect; inconclusive = small, poorly fitted or top-dose-only effect; inactive = no such curve, though single readings can be large or run the other way. The list comes from a sample in which actives are over-represented; it also holds close analogues and randomly drawn compounds.
Outcome codes: label 1 (active), label 0 (inactive)

CCCc1cc(-c2n[nH]c(=S)n2CC)c2ccccc2n1: label 1
CCOc1ccc(NCCC(=O)c2ccc3c(c2)OCO3)cc1: label 1
C/C(=N/NC(=O)C1COc2ccccc2O1)c1ccco1 (centres undefined): label 0
Cc1onc(-c2ccccc2Cl)c1C(=O)N(Cc1ccc(N(C)C)cc1)C(C)C: label 1
CCn1c(SCC(=O)Nc2nccs2)nnc1-c1ccncc1: label 0
O=C(NCc1ccccc1Cl)c1cccn1-c1nnc(N2CCCCC2)s1: label 0
CCn1c(C)nc2c1C(=O)c1ccccc1C2=O: label 0
Cc1ccc2cccc(NC(=O)c3cccc4ccccc34)c2n1: label 0
Cc1ccccc1CCNC(=O)C1CCN(c2nc3ccccc3nc2C(F)(F)F)CC1: label 0
COC(=O)CCNc1ccc2c(c1)OCCO2: label 0
CCn1c(-c2ccoc2C)n[nH]c1=S: label 1
Cc1ccc2oc(=O)c3cnn(CC(=O)NCc4ccccc4Cl)c3c2c1: label 0
Cc1ccc(C)c(S(=O)(=O)N2CC(=O)Nc3ccccc32)c1: label 1
CCN(c1ccccc1)S(=O)(=O)c1cc(C(=O)NCc2ccccn2)ccc1C: label 0
CCn1c(SCC(=O)NC2CCCC2)nnc1-c1ccoc1C: label 0
CC(C)n1c(-c2cccs2)nc2ccccc21: label 0
CCOC(=O)c1c(C)n(S(=O)(=O)c2ccc(C)cc2C)c2ccc(NS(=O)(=O)c3ccc(C)cc3C)cc12: label 0
Cc1ccc(C)c(S(=O)(=O)N2CCN(C(=O)Nc3ccccc3)CC2)c1: label 0
O=C(NC1CC(=O)N(c2ccc(F)cc2)C1)c1ccc(S(=O)(=O)N2CCCC2)cc1 (centres undefined): label 0
O=C(CCc1nc(CN2CCN(S(=O)(=O)c3ccc(Cl)cc3)CC2)no1)N1CCCCC1: label 0
Cc1cc(C)n(CC(O)COc2ccc(C(C)(C)C)cc2)n1 (centres undefined): label 1
CC(C)n1c(-c2ccncc2)n[nH]c1=S: label 1
COc1ccc(CC(=O)N2CC(=O)Nc3ccc(Br)cc3C2c2ccc(F)cc2)cc1OC (centres undefined): label 0
CCn1c(-c2ccncc2)n[nH]c1=S: label 1

###

# target-system: Lysine-specific demethylase 4A (Homo sapiens)
# assay-remarks: qHTS Assay for Inhibitors of JMJD2A-Tudor Domain; note: nearly all actives have a fitted effect of over 50% in size
# measurement-parameters: AlphaScreen JMJD2A-Tudor / H3K4me3 peptide binding; series mostly up to 114 µM
The whole screen tested about 390,000 compounds, of which about 17,000 (4.4%) were called active. Another 8% or so got no clear call; they are omitted. Calls come from the whole dose curve; as a rule, active = well fitted inhibition curve with a large enough effect; inconclusive = small, poorly fitted or top-dose-only effect; inactive = no such curve, though single readings can be large or run the other way. Many of the other results were omitted from the sample, so actives are more common in it than they were.
Outcome codes: active, inactive

Cc1cccn2c(=O)c3cc(C(=O)NC(C)c4ccccc4)c(=N)n(CCCO)c3nc12 (stereo not given): inactive
Cc1nn(-c2ccc(N3CCCCC3)nn2)c(C)c1CCC(=O)NCc1ccc(F)cc1: inactive
Cc1ccc(-c2nc3ccccn3c2Nc2c(C)cccc2C)o1: active
Cc1ccc(Cl)cc1N1CCN(C(=O)c2cnc3c(-c4ccc(F)cc4)c(C)nn3c2C)CC1: inactive
Cc1ccc(S(=O)(=O)c2cn(Cc3ccccc3)c3cc(N4CCCC4)c(F)cc3c2=O)c(C)c1: inactive
Cc1ccc2nc(COc3ccccc3NC(=O)Nc3ccc(F)c(Cl)c3)cc(=O)n2c1: inactive
Cc1ccc(-n2nc(CO)c(C(=O)NCCc3ccccc3)n2)cc1: inactive
Cc1ccc(-n2c3nc(=O)[nH]c(=O)c-3cc3c(Cl)cccc32)cc1: inactive
COc1ccc(NC(=O)C2CCN(c3ccc(Sc4ccc(C)cc4)nn3)CC2)c(OC)c1: inactive
Cc1cccc(C)c1Nc1c(-c2ccccc2O)nc2ncccn12: inactive
CCNS(=O)(=O)c1cc(-c2nnc(Nc3cccc(C(F)(F)F)c3)c3ccccc23)ccc1C: inactive
O=C1CC[C@@H]2CC3(C[C@@H]4CCN1[C@H]24)Nc1cc([N+](=O)[O-])ccc1NC3=NC1CCCCC1 (stereo not given in full): inactive
Cc1cc2c(cc1C)NC1(C[C@H]3CCC(=O)N4CC[C@@H](C1)[C@@H]34)C(=NC(C)(C)CC(C)(C)C)N2 (stereo not given in full): active
CCCOc1ccc(-c2cccc(NS(=O)(=O)c3ccccc3)c2)nn1: inactive
CCOC(=O)CNC(=O)c1cc2c(=O)n3cccc(C)c3nc2s1: inactive
C=CCCC(=O)Nc1nc(C)c(-c2csc(Nc3ccc(Cl)cc3)n2)s1: active
COc1ccc(CNC(=O)c2ccc3c(c2)nc2n3CCOC2)c(OC)c1: inactive
Cc1ccc(C(=O)NC2CCN(C#N)CC2)cc1: inactive
Cc1cccc(NC(=O)CSc2nc3c([nH]c4ccccc43)c(=O)n2-c2cc(C)cc(C)c2)c1: inactive
O=S(=O)(NCC(c1ccco1)N1CCOCC1)c1cc(F)ccc1F (stereo not given): inactive
